Where do the numbers come from? From ChEMBL document CHEMBL5143585.

- PROTOCOL_TEXT: Initial plasma concentration in rat at 0.25 mg/kg, iv
- Assay type: ADME, organism-based
- CONDITION: in vivo, iv, 0.25 mg/kg
Here, each record is paired with measured log10 C0 data.
The base-10 logarithm of C0, taken with C0 in ng/mL, is what appears here.

In the examples that follow, each entry is paired with its recorded log10 C0.
>  <MOLECULAR_STRING>
Fc1cc(COC2CCN(Cc3cn4ccccc4n3)CC2)ccc1Cl

>  <ENDPOINT_VALUE>
1.72

$$$$
>  <MOLECULAR_STRING>
Fc1cc(COC2CCN(Cc3ccc4[nH]cnc4c3)CC2)ccc1Cl

>  <ENDPOINT_VALUE>
1.37

$$$$
>  <MOLECULAR_STRING>
Fc1ccc(COC2CCN(Cc3cn4ccccc4n3)CC2)cc1F

>  <ENDPOINT_VALUE>
1.69

$$$$
>  <MOLECULAR_STRING>
Cn1cnc2cc(CN3CCC(OCc4cccc(C(F)(F)F)c4)CC3)ccc21

>  <ENDPOINT_VALUE>
1.78

$$$$
>  <MOLECULAR_STRING>
Cn1ncc2cc(CN3CCC(OCc4ccc(F)c(F)c4)CC3)ccc21

>  <ENDPOINT_VALUE>
1.51

$$$$

Now let's try a different one.
Report log10 C0, nothing else, for this molecule: "Cc1c(Cl)cccc1NC(=O)CN1CCC(OCc2ccc(F)c(F)c2)CC1"
0.74

====

- MEASUREMENT_TARGET: D(1B) dopamine receptor (Homo sapiens, UniProt P21918)
- Sequence (P21918 whole entry): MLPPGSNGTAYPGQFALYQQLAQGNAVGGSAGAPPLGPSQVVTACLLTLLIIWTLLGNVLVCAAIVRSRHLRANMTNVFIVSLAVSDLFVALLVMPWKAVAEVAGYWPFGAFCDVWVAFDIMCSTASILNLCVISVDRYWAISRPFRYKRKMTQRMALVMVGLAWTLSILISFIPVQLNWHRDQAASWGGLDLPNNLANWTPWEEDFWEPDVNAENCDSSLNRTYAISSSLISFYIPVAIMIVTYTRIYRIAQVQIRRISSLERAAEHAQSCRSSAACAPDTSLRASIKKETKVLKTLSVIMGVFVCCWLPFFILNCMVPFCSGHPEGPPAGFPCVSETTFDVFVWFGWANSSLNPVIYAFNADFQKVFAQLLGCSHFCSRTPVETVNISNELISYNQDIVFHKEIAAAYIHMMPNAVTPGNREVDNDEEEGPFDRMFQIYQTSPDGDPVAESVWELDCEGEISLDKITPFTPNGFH
- PROTOCOL_TEXT: Displacement of [3H]-SCH23390 from human D5 receptor expressed in HEK293 cell membrane at 10 uM by competitive inhibition based analysis
- Assay type: cell membranes
ASSAY_ENDPOINT: inhibition

In the examples that follow, each entry is paired with its recorded inhibition.
>  <MOLECULAR_STRING>
Fc1cccc(CO[C@H]2CCCN(Cc3ccc(Cl)cc3F)C2)c1

>  <inhibition>
< 50%

$$$$
>  <MOLECULAR_STRING>
Fc1cccc(COC2CCN(Cc3cn4ccccc4n3)CC2)c1

>  <inhibition>
< 50%

$$$$
>  <MOLECULAR_STRING>
Cc1ccccc1CO[C@H]1CCCN(Cc2ccc(Cl)cc2F)C1

>  <inhibition>
< 50%

$$$$

Read the entry "COc1ccc(CN2CCC[C@H](OCc3ccccc3C)C2)cc1F" and write its reported inhibition.
< 50%

In one line, give reported inhibition of the entry "Cc1cccc(CO[C@H]2CCCN(Cc3cn4ccccc4n3)C2)n1" .
< 50%

Supply reported inhibition belonging to this compound: "Fc1ccc(COC2CCN(Cc3ncc4ccccn34)CC2)cc1F"
< 50%

====

- MEASUREMENT_TARGET: D(1A) dopamine receptor (Homo sapiens, UniProt P21728)
- Sequence (P21728 whole entry): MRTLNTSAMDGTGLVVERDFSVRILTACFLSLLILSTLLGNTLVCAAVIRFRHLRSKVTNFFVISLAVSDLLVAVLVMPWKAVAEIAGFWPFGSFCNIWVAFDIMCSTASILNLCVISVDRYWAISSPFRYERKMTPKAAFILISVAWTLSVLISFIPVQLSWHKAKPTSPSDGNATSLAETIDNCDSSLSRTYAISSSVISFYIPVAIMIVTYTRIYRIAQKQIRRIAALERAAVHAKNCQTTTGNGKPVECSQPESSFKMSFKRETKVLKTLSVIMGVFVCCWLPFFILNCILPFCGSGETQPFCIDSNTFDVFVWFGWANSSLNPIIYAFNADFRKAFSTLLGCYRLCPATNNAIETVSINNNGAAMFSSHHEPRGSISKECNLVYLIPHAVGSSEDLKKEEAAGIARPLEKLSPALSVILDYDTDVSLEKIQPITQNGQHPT
- PROTOCOL_TEXT: Displacement of [3H]-SCH23390 from human D1 receptor expressed in HEK293 cell membrane by competitive inhibition based analysis
ASSAY_ENDPOINT: Ki (µM)
Your answer is read as µM, so omit the unit and give the number.

Read off the recorded Ki for "FC(F)(F)c1cccc(COC2CCN(Cc3cc4ccc(Cl)cc4[nH]3)CC2)c1"
1.19

====

- MEASUREMENT_TARGET: D(4) dopamine receptor (Homo sapiens) (UniProt P21917)
- Sequence (whole entry): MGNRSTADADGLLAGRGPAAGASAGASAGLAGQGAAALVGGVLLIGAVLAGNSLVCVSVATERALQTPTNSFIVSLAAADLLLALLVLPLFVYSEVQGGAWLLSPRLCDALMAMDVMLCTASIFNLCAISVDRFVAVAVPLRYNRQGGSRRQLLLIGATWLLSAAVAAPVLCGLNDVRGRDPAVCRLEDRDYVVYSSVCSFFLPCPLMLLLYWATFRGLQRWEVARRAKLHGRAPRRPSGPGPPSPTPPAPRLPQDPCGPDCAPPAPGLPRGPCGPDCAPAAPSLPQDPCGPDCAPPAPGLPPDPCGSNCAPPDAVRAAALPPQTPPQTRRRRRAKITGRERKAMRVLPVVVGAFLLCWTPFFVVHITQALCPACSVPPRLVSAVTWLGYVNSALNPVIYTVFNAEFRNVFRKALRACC
- PROTOCOL_TEXT: Displacement of [3H]N-methylspiperone from human D4 receptor expressed in HEK293 cell membrane at 10 uM by competitive inhibition based analysis
- Assay type: cell membranes
- CONDITION: filed as antagonist
inhibition reference
Numeric answer only, unit % assumed.

>  <MOLECULAR_STRING>
Fc1cccc(CO[C@H]2CCCN(Cc3ccc(Cl)cc3F)C2)c1

>  <inhibition / %>
44.9

$$$$
>  <MOLECULAR_STRING>
Cn1cnc2cc(CN3CCC(OCc4ccc(Cl)c(F)c4)CC3)ccc21

>  <inhibition / %>
48

$$$$
>  <MOLECULAR_STRING>
FC(F)(F)Oc1cccc(CO[C@H]2CCCN(Cc3ncc4ccccn34)C2)c1

>  <inhibition / %>
40.4

$$$$
>  <MOLECULAR_STRING>
COc1ccc(CO[C@H]2CCCN(Cc3cccc(C)c3)C2)cc1F

>  <inhibition / %>
45.8

$$$$

Next up:
Indicate the recorded inhibition value for this compound: "Cc1ccccc1CO[C@H]1CCCN(Cc2ccc(Cl)c(Cl)c2)C1"
43.9

====

Recorded pIC50 by entry
- MEASUREMENT_TARGET: D(4) dopamine receptor (Homo sapiens, UniProt P21917)
- PROTOCOL_TEXT: Displacement of [3H]N-methylspiperone from human D4 receptor expressed in HEK293 cell membrane by competitive inhibition based analysis
Here pIC50 is given on a logarithmic scale as minus log10 of the concentration in mol/L.

Below, each entry is followed by its recorded pIC50 result.
>  <MOLECULAR_STRING>
FC(F)(F)c1cccc(COC2CCN(Cc3cc4ccc(Cl)cc4[nH]3)CC2)c1

>  <pIC50>
6.68

$$$$
>  <MOLECULAR_STRING>
Fc1ccc(CO[C@H]2CCCN(Cc3cn4ccccc4n3)C2)cc1F

>  <pIC50>
6.43

$$$$
>  <MOLECULAR_STRING>
FC(F)(F)c1cccc(COC2CCN(Cc3ncc4ccccn34)CC2)c1

>  <pIC50>
6.68

$$$$
>  <MOLECULAR_STRING>
Cc1c(Cl)cccc1NC(=O)CN1CCC(OCc2ccc(F)c(F)c2)CC1

>  <pIC50>
6.52

$$$$
>  <MOLECULAR_STRING>
Fc1ccc(COC2CCN(Cc3cc4ccc(Cl)cc4[nH]3)CC2)cc1F

>  <pIC50>
6.83

$$$$

Indicate the recorded pIC50 value for this compound: "Fc1cc(COC2CCN(Cc3ncc4ccccn34)CC2)ccc1Cl"
6.80

Report pIC50, nothing else, for this compound: "Cc1nc(CN2CCC(OCc3ccc(F)c(F)c3)CC2)c2ccccn12"
6.32

Respond only with pIC50 recorded for "Fc1ccc(CO[C@H]2CCCN(Cc3ncn4ccccc34)C2)cc1F"
6.35

// Input: "Cn1cnc2cc(CN3CCC(OCc4cccc(C(F)(F)F)c4)CC3)ccc21" . Output its pIC50 only.
6.19

Identify the reported pIC50 for the following entry. "FC(F)(F)Oc1cccc(CO[C@H]2CCCN(Cc3cn4ccccc4n3)C2)c1"
6.19

Find the measured pIC50 of "COc1ccc(CN2CCC[C@H](OCc3ccc(F)c(F)c3)C2)cc1F" and report it.
6.77

Could you please provide reported pIC50 for "Fc1cccc(CO[C@H]2CCCN(Cc3cn4ccccc4n3)C2)c1" ? Thanks!
5.71

====

- PROTOCOL_TEXT: Half-life in rat at 0.25 mg/kg, iv measured for 24 hrs
- Type: ADME, organism-based
- CONDITION: in vivo
Threshold check on t1/2: at or above 1 h gives 1, strictly below gives 0.

>  <MOLECULAR_STRING>
Cn1cnc2cc(CN3CCC(OCc4cccc(C(F)(F)F)c4)CC3)ccc21

>  <GROUP_LABEL>
1

$$$$
>  <MOLECULAR_STRING>
Fc1ccc(COC2CCN(Cc3ccc4[nH]cnc4c3)CC2)cc1F

>  <GROUP_LABEL>
1

$$$$
>  <MOLECULAR_STRING>
Cc1c(Cl)cccc1NC(=O)CN1CCC(OCc2ccc(F)c(F)c2)CC1

>  <GROUP_LABEL>
1

$$$$
>  <MOLECULAR_STRING>
Cn1ncc2cc(CN3CCC(OCc4ccc(F)c(F)c4)CC3)ccc21

>  <GROUP_LABEL>
1

$$$$
>  <MOLECULAR_STRING>
Fc1cc(COC2CCN(Cc3ccc4[nH]cnc4c3)CC2)ccc1Cl

>  <GROUP_LABEL>
1

$$$$
>  <MOLECULAR_STRING>
Fc1ccc(COC2CCN(Cc3cc4ccc(Cl)cc4[nH]3)CC2)cc1F

>  <GROUP_LABEL>
1

$$$$
>  <MOLECULAR_STRING>
Fc1cc(COC2CCN(Cc3cn4ccccc4n3)CC2)ccc1Cl

>  <GROUP_LABEL>
0

$$$$

Okay, next one:
Test whether the compound "Fc1ccc(COC2CCN(Cc3cn4ccccc4n3)CC2)cc1F" records t1/2 of 1 h or higher.
0
